Tested on: SR
Assay: NCI tumour cell line growth inhibition, 48 h
The source made the active and inactive calls. No stated cut-off is given here; in the data, active = GI50 up to about 1.1 µM and inactive = higher.
Permitted responses: YES = active, NO = inactive

[in] Which outcome did this test record for the compound COC(=O)C1=C(C(=O)OC)C(N(C)C)C(C(=O)OC)=C(C(=O)OC)S1 ?
[out] NO

[in] I'd appreciate the recorded outcome for Cn1cco/c1=N/c1ccc(Cl)c(Cl)c1 from this test.
[out] NO

[in] Given CCCCc1c(O)nc(Nc2nc3ccccc3[nH]2)[nH]c1=O , state the outcome it received in this test.
[out] NO

[in] Which result was noted for this compound in the test: O=Cc1c(C(=O)O)[nH]c(=O)[nH]c1=O
[out] NO

[in] # lookup: test call for COC(=O)c1c(C)ccc2c(O)c3c(cc12)C(=O)c1c2c(cc(O)c1C3=O)C1(C)OC(C)(O2)C(O)C(N(C)C)C1O (stereo unspecified)
[out] YES

Continue with the next compound.
[in] Hello, I am checking results. What call was entered for CCN(CC)C1=Nc2ccccc2-n2ccnc2C1 ?
[out] NO

====

System: HCT-116
Assay: NCI tumour cell line growth inhibition, 48 h
Calls of active or inactive are those of the source. No stated cut-off is given here; in the data, active = GI50 up to about 1.1 µM and inactive = higher.
Result category, one only: true for active, false for inactive

Sample answers from the record:
[in] Per the assay record, what outcome was assigned to O=C1C(c2c(O)[nH]c3ccc(F)cc23)=Nc2ccccc21 ?
[out] false

[in] Per the assay record, what outcome was assigned to N#CCCN(c1ccc(-c2nnc(NC(=O)CNNC(=O)CC(=O)Nc3ccccc3)s2)cc1)S(=O)(=O)c1ccccc1 ?
[out] false

[in] Kindly provide the recorded test outcome for the following compound: Cn1c2ccccc2c2c(-c3ccccc3)cc3c(c21)C(=O)C=CC3=O
[out] false

[in] Hey, what did the test say about CC(C)c1cc(C(F)(F)F)nc(NNc2nc(C(C)C)cc(C(F)(F)F)n2)n1 ?
[out] false

[in] Short answer needed: outcome of this test for COc1ccc(/C(Cl)=C(\CNc2ccccn2)c2ccccc2)cc1OC ?
[out] false

[in] Dear colleague, could you share the recorded outcome for O=C1CC(c2c[nH]c3ccccc23)C(=O)N1c1ccccc1 (stereo unspecified) when you have a moment?
[out] false

Turning now to a further compound:
[in] Please state the recorded outcome for this compound: CSc1nnc(CCC(=O)Nc2c(C)cccc2C)o1
[out] false

====

System: U-251
Assay: NCI tumour cell line growth inhibition, 48 h
Calls of active or inactive are those of the source. Rule as the data show it: active = GI50 up to about 1.1 µM and inactive = higher.
PROPERTY MEASURED: GI50

Solved entries:
GI50 recorded for this molecule, O=C(NO)C(=O)Nc1cc(Cl)ccc1Cl , is > 100 µM (inactive)

Record summary for Cc1cc(C)n(C2=NS(=O)(=O)c3ccccc3N2C)n1 : reported GI50 = > 100 µM (inactive)

Value of measured GI50 for the entry C[C@]12CCc3nn(-c4ccccc4)nc3C1CC[C@@H]1C2CC[C@]2(C)C(=O)CCC12 (stereo not given in full) : > 100 µM (inactive)

The measured GI50 associated with Cc1cc(Br)cc(C)c1NC(=O)C(=O)C(C(=O)c1ccc2ccccc2c1)C1OC(=O)c2ccccc21 (stereo not given) reads 5.78 µM (inactive)

The molecule listed as Cc1nc(N)c(N2CCN(S(N)(=O)=O)CC2)c(O)n1 shows GI50 equal to > 100 µM (inactive)

// each molecule listed below needs its GI50
1. COc1ccc(/C(Cl)=C(\CNc2ccccn2)c2ccccc2)cc1OC
2. CCC1CN2CCc3cc(OC)c(OC)cc3C2CC1CC1c2cc(OC)c(OC)cc2CCN1C(=O)CNC(=O)OC(C)(C)C (stereo not given)
3. CON(C)C(=O)CNC(=O)OCC1c2ccccc2-c2ccccc21
4. CCOC(=O)/C(=C/c1cccc(Cl)c1)N(CC)CC
5. CCOC(=O)/C(=C/c1ccc(C#N)cc1)N(CC)CC

[out]
["> 100 µM (inactive)", "5.51 µM (inactive)", "98.4 µM (inactive)", "43.3 µM (inactive)", "> 100 µM (inactive)"]

====

System: HCT-116
Assay: NCI tumour cell line growth inhibition, 48 h
Active and inactive are the calls of the source. Cut-off read from the data, not from the text of the source: active = GI50 up to about 1.1 µM and inactive = higher.
Hi there, I'd appreciate the recorded GI50 for every entry that follows.

Solved cases (4 shown):
GI50 reported for this compound Cc1cc(C)n(C2=NS(=O)(=O)c3ccccc3N2C)n1 : > 100 µM (inactive)

// recorded GI50 for O=[N+]([O-])c1ccc(N2N=C(c3c(O)ccc4ccccc34)CC2c2ccc(Cl)cc2)c([N+](=O)[O-])c1 (stereo not given) : 15.3 µM (inactive)

Input CSCSSC . Output GI50: > 100 µM (inactive)

Input COC(=O)C(=Cc1cc(OC)c(OC)c(OC)c1-c1cc2c(cc1C1(C)OCCS1)OCO2)C(=O)OC (stereo not given) . Output GI50: 24.6 µM (inactive)

Continuing:
The measured GI50 associated with CCOC(=O)c1[nH]c2nc(SC)nc(Nc3ccccc3Cl)c2c1N reads 15.6 µM (inactive)

====

Tested on: OVCAR-8
Assay: NCI tumour cell line growth inhibition, 48 h
Activity calls are given as the source filed them. Rule as the data show it: active = GI50 up to about 1.1 µM and inactive = higher.
PROPERTY MEASURED: GI50

Worked examples follow.
Lab note: measured GI50 of N#C/C(=N/Nc1[nH]cnc1C(N)=O)C(=O)Nc1ccccc1 was 3.23 µM (inactive)

// GI50 lookup, molecule = N=C(Cc1ccccc1)NCC(=O)O , result: > 100 µM (inactive)

GI50 reported for this molecule CCN(CC)c1ccc2c(c1)Oc1ccc(N(C(C)=O)c3ccccc3)cc1C21OC(=O)c2ccccc21 (stereo unspecified) : > 75.5 µM (inactive)

Give me GI50 for each of these molecules, listed below.
1. Cn1cc(C(=O)c2ccccc2)cc(C(=O)c2ccccc2)c1=O
2. CCCCCC/C(CC(=O)CCC(=O)NCCc1ccccc1)=N\NC(=O)c1ccc2ccccc2c1O
3. CCOC(=O)/C(=C/c1cccc(Cl)c1)N(CC)CC
4. CCCCCCC(C)CC(CCCCCC)NCCOC(=O)c1ccc([N+](=O)[O-])cc1 (stereo unspecified)
5. COc1cc([C@@H]2c3cc4c(cc3[C@@H](OC(=O)c3ccc(N)cc3)C3COC(=O)[C@@H]32)OCO4)cc(OC)c1O (stereo partly specified)
6. COc1ccc2nc(NC(=O)C(=O)C(C#N)c3ccc(Cl)c(Cl)c3)sc2c1 (stereo unspecified)

[out]
1. > 100 µM (inactive)
2. 29.4 µM (inactive)
3. 42.2 µM (inactive)
4. 5.66 µM (inactive)
5. 4.49 µM (inactive)
6. > 100 µM (inactive)

Consider the following items and state reported GI50 for each.
1. CCC(=O)NCCc1c[nH]c2ccc(OC)cc12
2. C=CCC1(O)c2ccccc2C(=O)c2c(O)ccc(O)c21 (stereo unspecified)

[out]
["> 100 µM (inactive)", "12.4 µM (inactive)"]

====

System: SF-295
Assay: NCI tumour cell line growth inhibition, 48 h
Activity calls are given as the source filed them. No stated cut-off is given here; in the data, active = GI50 up to about 1.1 µM and inactive = higher.
Answer each item with its documented GI50.

The reported value for CCCCCCCCNC(=O)SCCCC in terms of GI50 is 38 µM (inactive)

Batch of 7 compounds: report GI50 for each.
1. CO[C@@H]1[C@@H](OC2OC(C)C(OC3CC(C)(O)C(OC(=O)CC(C)C)C(C)O3)C(N(C)C)C2O)[C@@H](CC=O)C[C@@H](C)C(=O)/C=C/C2O[C@H]2C[C@@H](C)OC(=O)C[C@H]1OC(C)=O (some centres not stated)
2. Nc1c([N+](=O)[O-])nc(Cl)c2nncn12
3. CCOC(=O)/C(=C/c1ccc(C#N)cc1)N(CC)CC
4. N#C/C(=C\c1ccc(O)cc1O)C(N)=O
5. COC(=O)/C(C#N)=C(/NCc1ccccc1)Nc1ccccc1
6. O=C1C2=C(c3ccccc31)C(c1ccc(Cl)cc1)NC(S)=N2 (configuration not stated)
7. CCCCn1c(N)c(-c2nc3ccccc3o2)sc1=S

[out]
24.7 µM (inactive)
> 100 µM (inactive)
1.88 µM (inactive)
> 100 µM (inactive)
46.1 µM (inactive)
15.5 µM (inactive)
12.6 µM (inactive)

====

Tested on: NCI-H226
Experiment: NCI tumour cell line growth inhibition, 48 h
Activity calls are given as the source filed them. Cut-off read from the data, not from the text of the source: active = GI50 up to about 1.1 µM and inactive = higher.
Outcome field: choose from t for active, f for inactive

[in] Fill in: this test's call for COc1cc(OCCN(C)C)c2[nH]c(C(=O)N3CC(CCl)c4c3cc(N)c3ccccc43)cc2c1 (stereo not given) is ___
[out] t

[in] Outcome logged for COc1ccc(-n2cnn3c(=O)c4cn[nH]c4nc23)cc1 in this assay:
[out] f

[in] Field: outcome | Entry: c1ccc2sc(C3(N4CCCC4)CCCCCC3)cc2c1
[out] f

[in] What did the test return for CCCCc1ccc(N2C(=O)c3cc(C)cnc3S2(=O)=O)cc1 ?
[out] f

[in] // outcome(item) with item = NS(=O)(=O)c1nnc(NS(=O)(=O)C(F)(F)F)s1
[out] f

[in] Identify the outcome logged in this assay for the molecule shown: O=[N+]([O-])c1ccc(N/N=C2\C=CCCC2)c([N+](=O)[O-])c1
[out] f

[in] Which outcome did this test record for the molecule COC(=O)/C=C\[C@@H]1[C@H](C)N1S(=O)(=O)c1ccc(C)cc1 (stereo not given in full) ?
[out] f

[in] Returns: the outcome recorded for CCOC(=O)/C([O-])=C(\C(=O)OCC)[n+]1c(C)n(C)c2ccccc21 in this assay.
[out] f

[in] Which outcome was assigned to CC(C)(C)c1ccc(O)c(C(O)c2cccnc2)c1 (stereo not given) in this test?
[out] f

[in] Given Cc1cc(NC(=O)NC(=O)c2ccccc2NC(=O)CN(C)C)ccc1Oc1ncc(Br)cn1 , state the outcome it received in this test.
[out] f
